Below, each entry is listed alongside its reported IC50.
Test system: LNCaP
Assay: Cytotoxicity against human LNCAP cells after 48 hrs by sulforhodamine B assay
Type: functional, cell-based
Write the number in nM without appending the unit.

Guide cases for IC50, answers given:
CN(C)c1ccc(-c2ncc(C(=O)c3ccc(F)cc3)n2S(=O)(=O)c2ccccc2)cc1 :: 56
COc1cc(C(=O)c2c[nH]c(-c3ccccc3)n2)cc(OC)c1OC :: 150

Attention now turns to another entry.
Input: Param request: IC50 | system LNCaP | item COc1ccc(-c2ncc(C(=O)c3cc(OC)c(OC)c(OC)c3)n2S(=O)(=O)c2ccccc2)cc1OC
Output: 114

The origin of these recorded values is ChEMBL document CHEMBL1268953.
